Ref: patent US20250115597A1

system-name: TYK2-JH2 domain (Homo sapiens, UniProt P29597)
Construct: IC50 on JH2 domain activity (nM)
Sequence (P29597 589-875 limits assumed): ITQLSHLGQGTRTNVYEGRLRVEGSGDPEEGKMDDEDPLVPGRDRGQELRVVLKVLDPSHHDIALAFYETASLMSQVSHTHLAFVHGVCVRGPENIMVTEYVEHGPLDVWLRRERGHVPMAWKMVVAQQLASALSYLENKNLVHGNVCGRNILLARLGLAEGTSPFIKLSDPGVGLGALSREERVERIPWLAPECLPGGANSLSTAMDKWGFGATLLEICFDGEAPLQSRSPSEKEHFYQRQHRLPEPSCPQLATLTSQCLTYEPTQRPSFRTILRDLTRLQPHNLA
protocol-text: Binding activity test for JH2 domain of TYK2 (Tb-antibody/tracer FRET)
pIC50: −log10 of the molar value.
Item-by-item account of pIC50

{"columns": ["compound", "system-name", "pIC50"],
 "data": [
  ["[2H]C([2H])([2H])NC(=O)c1cnc(NC(=O)C2CC2)cc1Nc1ccn2ncc(CCC)c2c1OC [Example 215]", "TYK2-JH2 domain (Homo sapiens, UniProt P29597)", 9.27],
  ["[2H]C([2H])([2H])NC(=O)c1cnc(NC(=O)C2CC2)cc1Nc1ccc2cnc(CC)n2c1OC [Example 227]", "TYK2-JH2 domain (Homo sapiens, UniProt P29597)", 8.12],
  ["[2H]C([2H])([2H])NC(=O)c1cnc(Nc2cccc(C#N)c2)nc1Nc1cccc(-c2ncn(C)n2)c1OC [Example 19]", "TYK2-JH2 domain (Homo sapiens, UniProt P29597)", 10.01],
  ["[2H]C([2H])([2H])NC(=O)c1cnc(Nc2ccc(F)cn2)cc1Nc1cn(CCOC)c2ccn(CC)c(=O)c12 [Example 192]", "TYK2-JH2 domain (Homo sapiens, UniProt P29597)", 8.47],
  ["[2H]C([2H])([2H])NC(=O)c1cnc(NC(=O)C2CC2)cc1Nc1ccn2ncc(C3CC3)c2c1OC [Example 250]", "TYK2-JH2 domain (Homo sapiens, UniProt P29597)", 9.63],
  ["[2H]C([2H])([2H])NC(=O)c1cnc(NC(=O)C2CC2)cc1Nc1nn(CC2CC2)c2ccn(CC(F)(F)F)c(=O)c12 [Example 203]", "TYK2-JH2 domain (Homo sapiens, UniProt P29597)", 9.76],
  ["[2H]C([2H])([2H])NC(=O)c1cnc(NC(=O)C2CC2)cc1Nc1cn(C)c2ncn(C(C)C(F)(F)F)c(=O)c12 (stereo not drawn) [Example 217]", "TYK2-JH2 domain (Homo sapiens, UniProt P29597)", 8.88],
  ["[2H]C([2H])([2H])NC(=O)c1cnc(NC(=O)C2CC2)cc1Nc1ccc2cnn(C(C)C#N)c2c1OC (single isomer, unassigned) [Example 249A]", "TYK2-JH2 domain (Homo sapiens, UniProt P29597)", 9.15],
  ["[2H]C([2H])([2H])NC(=O)c1nnc(NC(=O)C2CC2)cc1Nc1nn(CC)c2ccn(CC(F)(F)F)c(=O)c12 [Example 218]", "TYK2-JH2 domain (Homo sapiens, UniProt P29597)", 9.46],
  ["[2H]C([2H])([2H])NC(=O)c1cnc(Nc2ccc(F)cn2)cc1Nc1ccn2ncc(C#N)c2c1OC [Example 257]", "TYK2-JH2 domain (Homo sapiens, UniProt P29597)", 9.87],
  ["[2H]C([2H])([2H])NC(=O)c1cnc(NC(=O)C2CC2)cc1Nc1csc2c(Cl)cn(CC)c(=O)c12 [Example 173]", "TYK2-JH2 domain (Homo sapiens, UniProt P29597)", 9.09],
  ["CCn1ccc2scc(Nc3cc(NC(=O)C4CC4)ncc3C(=O)NC)c2c1=O [Example 17]", "TYK2-JH2 domain (Homo sapiens, UniProt P29597)", 9.69],
  ["[2H]C([2H])([2H])NC(=O)c1cnc(Nc2ccn(C)n2)cc1Nc1nn(C)c2ccn(CC)c(=O)c12 [Example 219]", "TYK2-JH2 domain (Homo sapiens, UniProt P29597)", 8.54],
  ["[2H]C([2H])([2H])NC(=O)c1cnc(NC(=O)C2CC2)cc1Nc1ncc2cnn(CC)c2c1OC [Example 262]", "TYK2-JH2 domain (Homo sapiens, UniProt P29597)", 9.66],
  ["CCn1ccc2c(c(Nc3cc(NC(=O)C4CC4)nnc3C(=O)NC)cn2C)c1=O [Example 23]", "TYK2-JH2 domain (Homo sapiens, UniProt P29597)", 8.88]
]}
